Recorded IC50 values for a group of compounds are listed next.
Target Desc: VIM-1 (Pseudomonas aeruginosa (strain ATCC 15692 / DSM 22644 / CIP 104116 / JCM 14847 / LMG 12228 / 1C / PRS 101 / PAO1))
Assay Text: biochemical
Condition Description: CCF2-FA substrate, 2 hours at 25° C
Provide only the numeric value, understood in nM.

Lookup: Give the measured IC50 of NCCS(=O)(=O)c1ccc(-c2cccc3[nH]c(=O)[nH]c23)c(-c2nnn[nH]2)c1S(N)(=O)=O.O=C(O)C(F)(F)F [Example 150, 2,2,2-trifluoroacetate] .
Found: 0.44

Lookup: Give the measured IC50 of NCCS(=O)(=O)c1ccc(-c2ccc3c(c2)CNC3=O)c(-c2nnn[nH]2)c1S(N)(=O)=O.O=C(O)C(F)(F)F [Example 166, 2,2,2-trifluoroacetate] .
Found: 0.327

Lookup: Give the measured IC50 of NS(=O)(=O)c1c(S(=O)(=O)C2CNC2)ccc(-c2cccc3ccnn23)c1-c1nnn[nH]1.O=C(O)C(F)(F)F [Example 102, 2,2,2-trifluoroacetate] .
Found: 0.457
